Source listed as patent US9452986B2.

Target: recombinant human Nav1.7 (Homo sapiens (Human), UniProt Q15858)
Sequence (Q15858 whole entry): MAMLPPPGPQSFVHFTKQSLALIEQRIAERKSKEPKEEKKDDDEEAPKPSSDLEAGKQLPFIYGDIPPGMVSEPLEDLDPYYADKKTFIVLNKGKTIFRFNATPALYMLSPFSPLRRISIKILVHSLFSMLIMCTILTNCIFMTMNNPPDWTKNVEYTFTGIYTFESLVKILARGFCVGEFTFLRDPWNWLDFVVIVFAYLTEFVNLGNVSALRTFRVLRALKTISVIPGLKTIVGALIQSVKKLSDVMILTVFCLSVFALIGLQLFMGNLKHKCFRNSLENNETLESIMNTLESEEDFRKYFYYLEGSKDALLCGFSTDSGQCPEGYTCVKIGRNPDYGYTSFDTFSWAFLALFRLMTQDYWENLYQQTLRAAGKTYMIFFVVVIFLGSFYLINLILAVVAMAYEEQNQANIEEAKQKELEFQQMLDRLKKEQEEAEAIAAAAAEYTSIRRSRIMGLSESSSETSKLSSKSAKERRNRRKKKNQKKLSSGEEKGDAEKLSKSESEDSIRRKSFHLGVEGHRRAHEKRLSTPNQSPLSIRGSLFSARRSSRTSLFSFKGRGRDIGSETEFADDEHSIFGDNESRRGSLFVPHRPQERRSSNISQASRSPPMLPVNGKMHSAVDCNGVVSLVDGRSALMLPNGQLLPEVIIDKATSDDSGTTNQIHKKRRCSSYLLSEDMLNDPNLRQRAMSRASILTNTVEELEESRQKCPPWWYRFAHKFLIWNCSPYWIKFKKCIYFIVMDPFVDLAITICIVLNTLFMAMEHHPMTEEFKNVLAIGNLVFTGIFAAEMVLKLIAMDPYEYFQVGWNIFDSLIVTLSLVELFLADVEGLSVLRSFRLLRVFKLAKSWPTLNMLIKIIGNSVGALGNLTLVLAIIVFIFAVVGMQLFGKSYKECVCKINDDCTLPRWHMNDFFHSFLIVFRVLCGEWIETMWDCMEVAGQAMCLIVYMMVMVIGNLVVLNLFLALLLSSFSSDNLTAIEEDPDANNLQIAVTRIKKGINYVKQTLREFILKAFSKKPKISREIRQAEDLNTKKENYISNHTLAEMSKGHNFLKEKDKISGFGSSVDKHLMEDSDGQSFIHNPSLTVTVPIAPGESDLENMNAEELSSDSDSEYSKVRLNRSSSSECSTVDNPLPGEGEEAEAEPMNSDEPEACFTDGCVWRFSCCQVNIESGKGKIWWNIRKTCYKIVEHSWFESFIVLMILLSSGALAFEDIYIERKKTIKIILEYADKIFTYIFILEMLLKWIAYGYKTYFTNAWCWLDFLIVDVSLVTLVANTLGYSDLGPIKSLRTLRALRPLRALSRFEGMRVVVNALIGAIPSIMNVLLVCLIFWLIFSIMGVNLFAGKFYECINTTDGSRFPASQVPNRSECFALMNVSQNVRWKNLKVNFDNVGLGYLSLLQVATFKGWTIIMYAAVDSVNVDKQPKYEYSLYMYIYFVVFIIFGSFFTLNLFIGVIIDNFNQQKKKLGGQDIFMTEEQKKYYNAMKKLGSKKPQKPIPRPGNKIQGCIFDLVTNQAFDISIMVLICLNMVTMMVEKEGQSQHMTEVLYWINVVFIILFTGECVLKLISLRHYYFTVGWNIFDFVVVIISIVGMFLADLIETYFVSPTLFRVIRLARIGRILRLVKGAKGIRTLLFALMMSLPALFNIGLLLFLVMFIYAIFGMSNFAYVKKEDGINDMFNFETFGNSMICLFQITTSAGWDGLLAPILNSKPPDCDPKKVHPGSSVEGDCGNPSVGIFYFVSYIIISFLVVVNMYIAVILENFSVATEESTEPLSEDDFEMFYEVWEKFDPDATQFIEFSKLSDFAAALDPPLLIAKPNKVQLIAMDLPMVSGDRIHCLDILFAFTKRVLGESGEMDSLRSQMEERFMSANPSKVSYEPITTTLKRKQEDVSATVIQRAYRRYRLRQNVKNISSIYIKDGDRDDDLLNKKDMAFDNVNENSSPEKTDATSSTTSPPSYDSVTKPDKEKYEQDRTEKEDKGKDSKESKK
Assay: FRET-based membrane potential assay, recombinant human sodium channel Nav1.7
Assay type: cell-based
Settings: read-out: FRET-Membrane Potential Nav1.7 IC50
List of pIC50 values.
Lab note: report pIC50 as minus log10 of the concentration in molar units, number only.

# example entries with known answers
Compound	pIC50
CC[C@@H]1CN(C(=O)c2ccc3cc(Oc4ccc(C(F)(F)F)nc4)ccc3n2)CCN1 [Example 543]	6.40
O=C(c1ccc2cc(Oc3ccc(C(F)(F)F)cn3)ccc2n1)N1CCC(N2CC(F)(F)C2)CC1 [Example 540]	5.39
CN(CCS(C)(=O)=O)C(=O)c1ccc2cc(Oc3ccc(C(F)(F)F)cn3)ccc2n1 [Example 611]	5.30

// query Consider the compound C[C@H](O)CNC(=O)c1ccc2cc(Oc3ccc(C(F)(F)F)cn3)ccc2n1 [Example 410] . State its measured pIC50.
// result 6.25

// query Consider the compound COCCN(C)C(=O)c1ccc2cc(Oc3ccc(C(F)(F)F)cn3)ccc2n1 [Example 392] . State its measured pIC50.
// result 5.10

// query Consider the compound O=C(N[C@@H]1CCNC1)c1ccc2cc(Oc3ccc(C(F)(F)F)cn3)ccc2n1 [Example 331] . State its measured pIC50.
// result 5.58
